Entry source: PubChem BioAssay (NCI)

assay: NCI Yeast Anticancer Drug Screen. Data for the mec2-1 strain (AID 157); conditions: S. cerevisiae mec2-1 strain, at 50.0 µM, active compounds read high
This is part of a sample that, as a whole, favours compounds with a hit. Of some 79,000 tested, about 15% had one in any assay.
# growth inhibition annotations
State the answer as a number, implicitly in %.

The examples below pair each entry with its known result.
[
  {
    "compound": "COc1ccc(F)cc1N",
    "value-observed": -17.8
  },
  {
    "compound": "CCC1(CC)C(=O)OC(=O)C1(CC)CC",
    "value-observed": 6.7
  },
  {
    "compound": "COC(=O)/C=C/c1c(=O)c(C(=O)OC)cn2cnc3nc[nH]c3c12",
    "value-observed": 2.35
  },
  {
    "compound": "CC(=O)OC1CCC2(C)C(=CC=C3C4CCC(=O)NC4(C)CCC32)C1 (configuration not stated)",
    "value-observed": 0.25
  },
  {
    "compound": "COC(=O)/C(C)=C/C=C/C(C)C(O)C(C)C1OC(CC(OC)OC)C(C)C(O)C1C (configuration not stated)",
    "value-observed": 22.2
  }
]

// field: growth inhibition; key: O=C(c1ccccc1)C1C(C(=O)c2ccccc2)C(c2ccccc2)N(c2ccccc2)C1c1ccccc1 (configuration not stated) ; value = 17.8

Sure, the documented growth inhibition for "C/C(=N\[N+](C)(C)C)c1ccc2ccccc2c1" is -2.45

Please fill in: growth inhibition reported for COc1c2c(cc3c1C1(O)Cc4ccc5c(c4C[N+]1(C)CC3)OCO5)OCO2 (configuration not stated) = 3.05

The compound listed as COc1ccc(OC(C)C(=O)O)c2c1CCCC2=O (configuration not stated) has a reported growth inhibition of 6.3

get_value(item= "O=C1NC(=S)S/C1=C/c1cn(-c2ccccc2)nn1" , readout=growth inhibition) returns 3.15

growth inhibition for "Cc1ccccc1CN" is 3.05

Reported growth inhibition of "C=CCCC(C)(C(=O)OCC)C(=O)OCC" : -15.8
